Reference for the values: the Human Domainome abundance scans (Beltran et al. 2025)

B1: Myocardin-related transcription factor A, residues 341 to 383; numbered along this chain, Q969V6 (parent)
chain: GALPANLDDMKVAELKQELKLRSLPVSGTKTELIERLRAYQDQ

Variants of: B1
Assay: abundance fitness (aPCA) (normalised: wild type 0, dead -1); higher = more abundant; growth selection in yeast, the domain comes from the species named
Settings: Homo sapiens
For each of the variants below, state its abundance fitness.
Numbers only.

Example entries and their recorded answers appear below.
Q41G: 0.262
S27M: -0.286
V26R: -0.129
Q43E: 0.357
T31D: 0.005

Hi! Can you tell me abundance fitness for each of these variants?
1. Q41S
2. R22H
3. E35G
4. Q41L

Response given:
1: 0.081; 2: -0.232; 3: 0.041; 4: 0.069

Hi! Can you tell me abundance fitness for each of these variants?
1. I34Y
2. E32M
3. R38D
4. K30P

Response given:
1. 0.017
2. -0.239
3. -0.588
4. -0.242

Challenge: Endpoint output: abundance fitness of L33V . Value?
Response given: -0.249
